Biological target: TNKS2 (Homo sapiens)
Construct: GST-tagged Tnks-2 (873-1166 aa, prepared in-house); made in house
Sequence (Q9H2K2 873-1166): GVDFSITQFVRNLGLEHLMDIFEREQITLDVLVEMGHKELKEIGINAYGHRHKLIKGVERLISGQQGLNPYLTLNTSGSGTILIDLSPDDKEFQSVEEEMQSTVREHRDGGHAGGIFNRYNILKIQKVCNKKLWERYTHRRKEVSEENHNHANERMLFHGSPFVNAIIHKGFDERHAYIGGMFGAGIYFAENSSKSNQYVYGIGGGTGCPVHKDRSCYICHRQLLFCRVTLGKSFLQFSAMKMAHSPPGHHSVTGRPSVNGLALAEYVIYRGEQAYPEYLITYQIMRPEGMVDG
Experiment: TNKS2 activity ELISA (autoparsylation assay)
Format: biochemical
Conditions: GST-tagged Tnks-2 (873-1166 aa); read-out: IC50 [M] TNKS2 ELISA
Protocol: Description of the TNKS1 and TNKS2 ELISA Assay Biochemical Activity Testing of TNKS 1 and 2: Activity ELISA (Autoparsylation Assay) For analysis of autoparsylation activity of TNKS 1 and 2 an activity ELISA iss performed: In the first step GST tagged TNKS is captured on a Glutathione coated plate. Then the activity assay with biotinylated NAD is performed in the absence/presence of the compounds. […] The amount of biotinylated resp. autoparsylated TNKS is detected with a luminescence substrate for HRP. […]
Assay readout: IC50 (M)
Give just the numeric value; M need not be written.

(Q) Return IC50 measured with TNKS2 (Homo sapiens) given this molecule: Cc1csc2c(=O)[nH]c(CCCC(=O)N3CCC(C(=O)c4cnn(C)c4)CC3)nc12 [Compound C135]
(A) 4.7e-10

(Q) Return IC50 measured with TNKS2 (Homo sapiens) given this molecule: COc1ccc(C(=O)C2CN(C(=O)CCCc3cn4cccc4c(=O)[nH]3)C2)cc1 [Compound D1]
(A) 8.5e-08

(Q) Return IC50 measured with TNKS2 (Homo sapiens) given this molecule: Cc1scc2c(=O)[nH]c(CCCC(=O)N3CCC(Oc4ccc(C#N)cc4)CC3)nc12 [Compound C118]
(A) 8.9e-08

(Q) Return IC50 measured with TNKS2 (Homo sapiens) given this molecule: Cc1nc(CCCC(=O)N2CCC(C(=O)c3ccc(F)cc3)CC2)[nH]c(=O)c1C [Compound C240]
(A) 5.3e-09

----------
biological target: TNKS2 (Homo sapiens); construct: GST-tagged Tnks-2 (873-1166 aa, prepared in-house); made in house; experiment: TNKS2 activity ELISA (autoparsylation assay); type: biochemical; details: GST-tagged Tnks-2 (873-1166 aa); read-out: IC50 [M] TNKS2 ELISA
Where a name gives a salt, the structure may show the parent alone.
Hi there, I'd appreciate the recorded IC50 for every entry that follows.

(Q) Recorded IC50 of COc1ccc(C(=O)C2CCN(C(=O)CCCc3nc4c(c(=O)[nH]3)COCC4)CC2)cc1C , please.
(A) 2.2e-10 M

(Q) Recorded IC50 of Cc1scc2c(=O)[nH]c(CCCC(=O)N3CCC(C(=O)c4cnn(C)c4)CC3)nc12 , please.
(A) 5.7e-10 M

(Q) Recorded IC50 of Cc1ccc2c(=O)[nH]c(CCCC(=O)N3CCC(Oc4ccc(C#N)cc4)CC3)cn12 , please.
(A) 2e-09 M

(Q) Recorded IC50 of Cn1ccc2c(=O)[nH]c(CCCC(=O)N3CCC(C(=O)c4ccc(F)c(F)c4)CC3)nc21 , please.
(A) 2.3e-10 M

(Q) Recorded IC50 of O=C(c1ccc(Cl)cc1)C1CCN(C(=O)CCCc2nc3c(c(=O)[nH]2)COCC3)CC1 [Compound C247, trifluoroacetate] , please.
(A) 6.6e-10 M

(Q) Recorded IC50 of COc1ccc(C(=O)C2CCN(C(=O)CCCc3nn4cc(C)cc4c(=O)[nH]3)CC2)cc1C , please.
(A) 2.2e-10 M

(Q) Recorded IC50 of COc1ccc(C(=O)C2CCN(C(=O)CCCc3nn4cc(F)cc4c(=O)[nH]3)CC2)cn1 , please.
(A) 9.9e-10 M

(Q) Recorded IC50 of COc1ccc(C(=O)C2CCN(C(=O)CCCc3nn4c(C)ccc4c(=O)[nH]3)CC2)cc1F , please.
(A) < 1e-10 M

(Q) Recorded IC50 of N#Cc1ccc(OC2CCN(C(=O)CCCc3cn4cccc4c(=O)[nH]3)CC2)cc1 , please.
(A) 8.8e-09 M

(Q) Recorded IC50 of Cc1cc2c(=O)[nH]c(CCCC(=O)N3CCC(C(=O)c4cnn(C(C)C)c4)CC3)nn2c1 , please.
(A) 3.7e-09 M

(Q) Recorded IC50 of COc1ccc(C(=O)C2CCN(C(=O)CCCc3nc4c(cnn4C)c(=O)[nH]3)CC2)cc1F , please.
(A) < 1e-10 M

(Q) Recorded IC50 of COc1ccc(C(=O)C2CCN(C(=O)CCCc3nc4c(c(=O)[nH]3)COCC4)CC2)cc1 , please.
(A) 4.8e-10 M

(Q) Recorded IC50 of Cc1cc2c(=O)[nH]c(CCCC(=O)N3CCC(c4cnc(N)c(C#N)c4)CC3)nn2c1 , please.
(A) 1e-08 M

(Q) Recorded IC50 of Cn1cc(C(=O)C2CCN(C(=O)CCCc3nc4c(ccn4C)c(=O)[nH]3)CC2)cn1 , please.
(A) 3.2e-10 M

(Q) Recorded IC50 of COc1ccc(C(=O)C2CCN(C(=O)CCCc3nn4cc(F)cc4c(=O)[nH]3)CC2)cc1F , please.
(A) 2.2e-10 M

(Q) Recorded IC50 of Cc1ccc2c(=O)[nH]c(CCCC(=O)N3CCC(C(=O)c4cnn(C)c4)CC3)nn12 , please.
(A) 2.6e-10 M

The measurements presented in this section are drawn from patent US9809598B2.
